- targetOrTestSystem: Thromboxane-A synthase (Rattus norvegicus)
- assayProcedure: Tested for inhibition of thromboxane A2 (TXA2) production in rat serum by ex vivo assay after peroral dose of 30 mg/kg
- Assay type: functional, organism-based
- Parameters: dose 30 mg/kg
Cut-off 50% on inhibition, inclusive. At or above means TRUE; below means FALSE.

Use these answered entries as a reference point.
itemsmiles=Cn1c(=O)c2[nH]cnc2n(C)c1=O label=FALSE
itemsmiles=CC(C)Cc1nn(CCn2ccnc2)c(=O)c2ccccc12 label=FALSE
itemsmiles=O=c1c2ccccc2c(Cc2cccs2)nn1CCn1ccnc1 label=FALSE
itemsmiles=O=c1c2ccccc2c(-c2ccc(Cl)s2)nn1CCn1ccnc1 label=FALSE
itemsmiles=O=c1c2ccccc2c(-c2ccc(Cl)cc2)nn1CCn1ccnc1 label=FALSE
itemsmiles=O=c1c2ccccc2c(-c2cccnc2)nn1CCn1ccnc1 label=TRUE
itemsmiles=O=c1c2ccccc2c(-c2ccccn2)nn1CCn1ccnc1 label=FALSE
itemsmiles=CCc1ccc(-c2nn(CCn3ccnc3)c(=O)c3ccccc23)cc1 label=TRUE
itemsmiles=CCc1ccsc1-c1nn(CCn2ccnc2)c(=O)c2ccccc12 label=FALSE
itemsmiles=CSc1ccc(-c2nn(CCn3ccnc3)c(=O)c3ccccc23)cc1 label=TRUE

Task: Determine whether this compound has inhibition no lower than 50%: CCc1ccc(-c2nn(CCn3ccnc3)c(=O)c3ccccc23)s1
Output: TRUE

Task: In plain terms: is recorded inhibition at least 50% for O=c1c2ccccc2c(-c2cccc(C(F)(F)F)c2)nn1CCn1ccnc1 ?
Output: FALSE

Task: Can O=c1c2ccccc2c(-c2cccs2)nn1CCn1ccnc1 be said to have inhibition at or above 50%?
Output: FALSE

###

- assayProcedure: Partition coefficient (logP)
- Type: physicochemical
- statedConditions: octanol/water
Kindly supply the reported logP values for the records listed here.
One number for each entry.

// worked examples, logP included
itemsmiles=O=c1c2ccccc2c(-c2ccncc2)nn1CCn1ccnc1 valuereported=0.66
itemsmiles=CC(=O)c1ccc(-c2nn(CCn3ccnc3)c(=O)c3ccccc23)s1 valuereported=1.51

For every item in the list below, what is its measured logP?
1. O=c1c2ccccc2c(-c2ccco2)nn1CCn1ccnc1
2. COc1ccc(-c2nn(CCn3ccnc3)c(=O)c3ccccc23)s1

Output:
1.52
1.94

###

- assayProcedure: Partition coefficient (logP)
- Format: physicochemical
- statedConditions: octanol/water
propertyName: logP
Numbers only.

Sample records with logP:
itemsmiles=O=c1c2ccccc2c(C2CCCC2)nn1CCn1ccnc1 valuereported=2.63
itemsmiles=CCc1ccc(-c2nn(CCn3ccnc3)c(=O)c3ccccc23)s1 valuereported=3.02
itemsmiles=Cc1nn(CCn2ccnc2)c(=O)c2ccccc12 valuereported=0.538
itemsmiles=CC(C)Cc1nn(CCn2ccnc2)c(=O)c2ccccc12 valuereported=2
itemsmiles=O=c1c2ccccc2c(C2CCCCC2)nn1CCn1ccnc1 valuereported=3.19

Please give logP, item by item, for the list that follows.
1. O=c1c2ccccc2c(-c2cccs2)nn1CCn1ccnc1
2. O=c1c2ccccc2c(-c2ccccn2)nn1CCn1ccnc1
3. CCc1ccc(-c2nn(CCn3ccnc3)c(=O)c3ccccc23)cc1
4. CSc1ccc(-c2nn(CCn3ccnc3)c(=O)c3ccccc23)cc1
5. O=c1c2ccccc2c(-c2ccccc2)nn1CCn1ccnc1
6. O=c1c2ccccc2c(-c2cccnc2)nn1CCn1ccnc1
7. COc1ccc(-c2nn(CCn3ccnc3)c(=O)c3ccccc23)cc1

Output:
[1.99, 0.87, 3.17, 2.7, 2.14, 0.66, 2.06]

Cited source: ChEMBL document CHEMBL1126556
